Provide the reported IC50 of each item.
target_of_assay: PI3Kδ (Homo sapiens (Human))
Sequence (O00329 whole entry): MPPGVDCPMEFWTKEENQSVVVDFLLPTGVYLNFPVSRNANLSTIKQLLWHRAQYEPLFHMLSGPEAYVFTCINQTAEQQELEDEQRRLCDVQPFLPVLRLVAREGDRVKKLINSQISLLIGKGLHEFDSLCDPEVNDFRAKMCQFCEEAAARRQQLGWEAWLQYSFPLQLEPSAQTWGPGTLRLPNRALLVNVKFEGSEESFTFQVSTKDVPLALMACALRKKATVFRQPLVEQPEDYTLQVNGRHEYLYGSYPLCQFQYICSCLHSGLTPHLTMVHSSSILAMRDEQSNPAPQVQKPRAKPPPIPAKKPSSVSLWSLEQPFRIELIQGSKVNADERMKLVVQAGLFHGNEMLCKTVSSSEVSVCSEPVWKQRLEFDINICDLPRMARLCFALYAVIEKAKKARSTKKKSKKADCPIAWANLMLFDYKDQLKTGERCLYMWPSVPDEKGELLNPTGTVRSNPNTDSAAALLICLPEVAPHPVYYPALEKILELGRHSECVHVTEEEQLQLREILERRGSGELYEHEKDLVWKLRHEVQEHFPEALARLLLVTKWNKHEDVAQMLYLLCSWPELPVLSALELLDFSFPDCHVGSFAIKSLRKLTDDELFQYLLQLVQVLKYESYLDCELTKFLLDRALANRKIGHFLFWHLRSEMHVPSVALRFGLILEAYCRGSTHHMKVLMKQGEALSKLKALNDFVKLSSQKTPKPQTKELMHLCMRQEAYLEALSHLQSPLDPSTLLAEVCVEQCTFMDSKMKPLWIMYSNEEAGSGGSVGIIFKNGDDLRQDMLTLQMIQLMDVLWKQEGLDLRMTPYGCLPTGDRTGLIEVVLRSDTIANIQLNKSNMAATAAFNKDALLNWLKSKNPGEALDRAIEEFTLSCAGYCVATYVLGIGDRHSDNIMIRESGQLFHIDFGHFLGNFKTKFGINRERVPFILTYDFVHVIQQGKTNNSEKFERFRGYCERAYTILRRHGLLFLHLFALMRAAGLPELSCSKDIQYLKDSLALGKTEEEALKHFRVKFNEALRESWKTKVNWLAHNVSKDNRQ
Sequence (P27986 whole entry partner): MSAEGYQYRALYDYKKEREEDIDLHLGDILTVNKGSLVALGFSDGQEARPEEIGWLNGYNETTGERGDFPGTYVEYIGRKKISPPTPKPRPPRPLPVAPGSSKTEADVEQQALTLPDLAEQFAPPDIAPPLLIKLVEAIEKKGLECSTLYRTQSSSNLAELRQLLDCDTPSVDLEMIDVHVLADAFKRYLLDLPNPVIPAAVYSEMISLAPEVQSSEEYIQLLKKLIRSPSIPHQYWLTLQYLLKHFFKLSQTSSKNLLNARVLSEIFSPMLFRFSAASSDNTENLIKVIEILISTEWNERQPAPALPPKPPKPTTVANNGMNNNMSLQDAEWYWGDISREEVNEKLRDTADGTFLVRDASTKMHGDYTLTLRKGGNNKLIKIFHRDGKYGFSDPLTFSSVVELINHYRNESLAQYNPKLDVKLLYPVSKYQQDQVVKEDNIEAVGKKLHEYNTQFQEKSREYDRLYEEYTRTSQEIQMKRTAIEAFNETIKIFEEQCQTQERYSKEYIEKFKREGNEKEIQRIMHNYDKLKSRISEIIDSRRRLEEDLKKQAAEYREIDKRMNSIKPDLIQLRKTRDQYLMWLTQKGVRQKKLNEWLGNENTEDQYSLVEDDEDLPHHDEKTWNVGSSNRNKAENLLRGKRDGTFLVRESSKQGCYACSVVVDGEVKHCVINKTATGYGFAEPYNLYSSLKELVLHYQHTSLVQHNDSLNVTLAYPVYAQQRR
test_name: Inhibition of PI3Kδ efficacy assay (ADP-Glo kinase assay)
Type: biochemical
measurement_context: Table 4; read-out: PI3Kδ inhibitory activity (IC50)
Answers are plain numbers, in nM.

Note down IC50 recorded for COc1ncc(-c2ccc3ncnc(N4CCN(C(=O)/C=C/C(C)=O)CC4)c3n2)cc1NS(=O)(=O)c1ccncc1F [Example 220] 11.4

# map each compound to its IC50
1. COc1ncc(-c2ccc3ncnc(C4CCN(C(=O)/C=C/C(C)=O)CC4)c3n2)cc1NS(=O)(=O)c1c(F)cccc1F [Example 233]
2. COc1ncc(-c2ccc3ncnc(N4CCN(C(=O)/C=C/C(C)=O)CC4)c3c2)cc1NS(=O)(=O)c1ncc(Cl)s1 [Example 165]
3. COc1ncc(-c2ccc3ncnc(C4CCN(C(=O)/C=C/C(C)=O)CC4)c3n2)cc1NS(=O)(=O)c1ccccc1F [Example 232]
4. COc1ncc(-c2ccc3ncnc(C4=CCN(C(=O)/C=C/C(C)=O)CC4)c3c2)cc1NS(=O)(=O)c1ccc(F)cc1F [Example 198]

1. 31.3
2. 12
3. 14.6
4. 13.3

# map each compound to its IC50
1. COc1ncc(-c2ccc3ncnc(N4CC5CCC4CN5C(=O)/C=C/C(C)=O)c3c2)cc1NS(=O)(=O)c1ccc(F)cc1F (stereo not shown) [Example 158]
2. COc1ncc(-c2ccc3ncnc(N4C5CCC4CN(C(=O)/C=C/C(C)=O)C5)c3c2)cc1NS(=O)(=O)c1ccc(F)cc1F [Example 144]

[34.6, 13.4]
